- Tested on: HUVECs
- assay-method-text: High-content imaging cytotoxicity in HUVECs, 24 h
- Type: cell-based, human
- recorded-conditions: Homo sapiens, HUVEC, 24 h, HUVECs, 24 hr, 100.00 µM; 0.00 µM = 100.00; read-out: huvec.mito.24hr
Counter-ions that a name gives are not always drawn.
Note to self: values exactly at 60% are Met. So activity at 100 µM at or above 60% is Met, below is Not met.

{"columns": ["compound", "assigned-class"],
 "data": [
  ["O=C1C=CC(=O)C(c2ccc(Cl)cc2)=C1", "Not met"],
  ["O=S(=O)(O)Oc1cccc(-c2ccc(Cl)cc2)c1 [3'-yl PCB 3 sulfate]", "Met"],
  ["Oc1ccc(O)c(-c2ccc(Cl)cc2)c1", "Not met"],
  ["Clc1ccc(-c2ccccc2)cc1", "Not met"],
  ["Oc1cccc(-c2ccc(Cl)cc2)c1", "Met"]
]}

---

- System: iCell cardiomyocytes (human iPSC-derived cardiomyocytes)
- assay-method-text: Intracellular Ca2+ flux / beating parameters in iCell cardiomyocytes (FLIPR tetra), 90 min or 24 h
- Assay type: cell-based
- recorded-conditions: Homo sapiens, Cardiomyocyte, 1.5 h, 100.00 µM; 90min; 0.00 µM = 100.00; read-out: cm.bpm.90min
Where a name gives a salt, the structure may show the parent alone.

{"columns": ["molecule", "measured-on", "activity at 100 µM, %"],
 "data": [
  ["Clc1ccc(Cl)c(-c2cc(Cl)ccc2Cl)c1 [PCB52]", "iCell cardiomyocytes (human iPSC-derived cardiomyocytes)", 0],
  ["Oc1cc(Cl)c(-c2cc(Cl)ccc2Cl)cc1Cl [4-OH PCB52]", "iCell cardiomyocytes (human iPSC-derived cardiomyocytes)", 0],
  ["Clc1ccc(Cl)c(-c2c(Cl)ccc(Cl)c2Cl)c1Cl [(+)-PCB 136, 2,2′,3,3′,6,6′-hexachlorobiphenyl]", "iCell cardiomyocytes (human iPSC-derived cardiomyocytes)", 0],
  ["O=S(=O)(O)Oc1cc(Cl)c(-c2cc(Cl)ccc2Cl)cc1Cl [4-yl PCB 52 sulfate]", "iCell cardiomyocytes (human iPSC-derived cardiomyocytes)", 0],
  ["Clc1ccc(-c2cc(Cl)c(Cl)c(Cl)c2)cc1Cl [PCB126]", "iCell cardiomyocytes (human iPSC-derived cardiomyocytes)", 135]
]}

---

# maps each entry to its activity at 10 µM
- System: iCell endothelial cells (human iPSC-derived ECs)
- assay-method-text: Tube formation (tubulogenesis) assay in iCell endothelial cells, 18 h
- Assay type: cell-based
- recorded-conditions: Homo sapiens, Endothelial cell, iPSC-EC tube formation, 18 hr, 10.00 µM, 0.00 µM control = 100.00, read-out: endo.tlps.18hr
- Description: The culture conditions of iCell®-endothelial cells were as reported elsewhere ([Iwata et al. 2017]). Briefly, T75 flasks were coated with a fibronectin solution ( 3 μg/cm^2 ) followed by incubation for 1–2 h. […] Phenotypic responses were quantitatively assessed using concentration–response modeling as detailed elsewhere ([Sirenko et al. 2017]). […] The ability of physicochemical properties to predict differences in PODs were evaluated by multiregression and mixed-effects modeling using R.
Where a name gives a salt, the structure may show the parent alone.
outcome-measure: activity at 10 µM (%)

{"columns": ["compound", "measured-on", "unit-string", "assay-value"],
 "data": [
  ["Clc1ccc(-c2ccccc2)cc1", "iCell endothelial cells (human iPSC-derived ECs)", "%", 103],
  ["Oc1ccccc1-c1ccc(Cl)cc1", "iCell endothelial cells (human iPSC-derived ECs)", "%", 76.6],
  ["Oc1cc(Cl)cc(-c2cccc(Cl)c2)c1", "iCell endothelial cells (human iPSC-derived ECs)", "%", 26.9],
  ["Oc1ccc(-c2cccc(Cl)c2)cc1Cl", "iCell endothelial cells (human iPSC-derived ECs)", "%", 119],
  ["O=C1C=CC(=O)C(c2ccc(Cl)cc2)=C1", "iCell endothelial cells (human iPSC-derived ECs)", "%", 45],
  ["Oc1cc(Cl)c(-c2cc(Cl)ccc2Cl)cc1Cl", "iCell endothelial cells (human iPSC-derived ECs)", "%", 70.9],
  ["Oc1ccc(-c2ccc(Cl)cc2)cc1", "iCell endothelial cells (human iPSC-derived ECs)", "%", 31.4],
  ["COc1ccc(-c2ccc(Cl)cc2)cc1", "iCell endothelial cells (human iPSC-derived ECs)", "%", 82.1],
  ["Clc1ccc(Cl)c(-c2cc(Cl)ccc2Cl)c1", "iCell endothelial cells (human iPSC-derived ECs)", "%", 108],
  ["O=S(=O)(O)Oc1ccc(-c2ccc(Cl)cc2)cc1 [4'-yl PCB 3 sulfate]", "iCell endothelial cells (human iPSC-derived ECs)", "%", 85.4]
]}
